- EXPERIMENTAL DETAILS: Retention time of the compound by HPLC analysis
- Type: physicochemical
Square brackets hold non-standard residues; d marks the D form. Peptide text beside a SMILES is read from it. hPhe = N[C@@H](CCc1ccccc1)C(=O)O; Nle = CCCC[C@H](N)C(=O)O; Aoc = NCCCCCCCC(=O)O
Retention_time reference
PROPERTY LABEL: Retention_time (min)

MOLECULE	PROPERTY LABEL	MEASUREMENT
CCCC[C@H](NC(=O)[C@@H]1CCCN1C(=O)[C@H](CCCNC(=N)N)NC(C)=O)C(=O)NCCCCCCCC(=O)N[C@@H](C)C(=O)N[C@@H](C)C(=O)N[C@@H](CCCCN)C(=O)NCC(=O)N1CCC[C@H]1C(=O)N[C@@H](CC(C)C)C(N)=O (Ac-RP[Nle][Aoc]AAKGPL-NH2)	Retention_time	19.43
CCCC[C@H](NC(=O)[C@@H]1CCCN1C(=O)[C@H](CCCNC(=N)N)NC(C)=O)C(=O)N[C@@H](CCc1ccccc1)C(=O)N[C@@H](C)C(=O)N[C@@H](C)C(=O)N[C@@H](CCCCN)C(=O)NCC(=O)N1CCC[C@H]1C(=O)N[C@@H](CC(C)C)C(N)=O (Ac-RP[Nle][hPhe]AAKGPL-NH2)	Retention_time	18.37

---

- EXPERIMENTAL DETAILS: Retention time of the compound by HPLC analysis
- Format: physicochemical
Where a name gives a salt, the structure may show the parent alone. Square brackets hold non-standard residues; d marks the D form. Peptide text beside a SMILES is read from it. * marks the point of attachment. Nle = CCCC[C@H](N)C(=O)O; Aoc = NCCCCCCCC(=O)O; Tfa = O=C(C(F)(F)F)*
PROPERTY LABEL: Retention_time (min)

MOLECULE	VALUE UNITS	MEASUREMENT
CSCC[C@H](NC(=O)[C@@H]1CCCN1C(=O)CNC(=O)[C@H](CCCCN)NC(=O)[C@H](Cc1cnc[nH]1)NC(=O)[C@H](CO)NC(=O)[C@H](CC(C)C)NC(=O)[C@H](CCCNC(=N)N)NC(=O)[C@@H]1CCCN1C(=O)[C@H](CCCNC(=N)N)NC(=O)[C@@H]1CCC(=O)N1)C(=O)N1CCC[C@H]1C(=O)N[C@@H](Cc1ccccc1)C(=O)O	min	17.44
CCCC[C@H](NC(=O)[C@@H]1CCCN1C(=O)[C@H](CCCNC(=N)N)NC(C)=O)C(=O)N[C@@H](CC(C)C)C(=O)N[C@@H](C)C(=O)N[C@@H](C)C(=O)N[C@@H](CCCCN)C(=O)NCC(=O)N1CCC[C@H]1C(=O)N[C@@H](CC(C)C)C(N)=O (Ac-RP[Nle]LAAKGPL-NH2)	min	16.64
CC(=O)N[C@@H](CCCCNC(=O)C(F)(F)F)C(=O)N1CCC[C@H]1C(=O)N[C@@H](CCCNC(=N)N)C(=O)N[C@@H](CC(C)C)C(=O)N[C@@H](C)C(=O)N[C@@H](C)C(=O)N[C@@H](CCCCN)C(=O)NCC(=O)N1CCC[C@H]1C(=O)N[C@@H](CC(C)C)C(N)=O (Ac-K(Tfa)PRLAAKGPL-NH2)	min	17.23
CC(=O)N[C@@H](CCCNC(=N)N)C(=O)N1CCC[C@H]1C(=O)NCCCCCCCC(=O)N[C@@H](CC(C)C)C(=O)N[C@@H](C)C(=O)N[C@@H](C)C(=O)N[C@@H](C)C(=O)NCC(=O)N1CCC[C@H]1C(=O)N[C@@H](CC(C)C)C(N)=O (Ac-RP[Aoc]LAAAGPL-NH2)	min	22
CCCC[C@H](NC(=O)[C@H](C)NC(=O)[C@H](C)NC(=O)[C@H](CC(C)C)NC(=O)[C@H](CCCC)NC(=O)[C@@H]1CCCN1C(=O)[C@H](CCCNC(=N)N)NC(C)=O)C(=O)NCC(=O)N1CCC[C@H]1C(=O)N[C@@H](CC(C)C)C(N)=O (Ac-RP[Nle]LAA[Nle]GPL-NH2)	min	16.79
CCCC[C@H](NC(=O)[C@H](C)NC(=O)[C@H](C)NC(=O)[C@H](CC(C)C)NC(=O)[C@H](CCCCN)NC(=O)[C@@H]1CCCN1C(=O)[C@H](CCCNC(=N)N)NC(C)=O)C(=O)NCC(=O)N1CCC[C@H]1C(=O)N[C@@H](CC(C)C)C(N)=O (Ac-RPKLAA[Nle]GPL-NH2)	min	17.64
CC(=O)N[C@@H](CCCNC(=N)N)C(=O)N1CCC[C@H]1C(=O)N[C@@H](CCCCN)C(=O)N[C@@H](CC(C)C)C(=O)N[C@@H](C)C(=O)N[C@@H](C)C(=O)N[C@@H](CCCCN)C(=O)NCC(=O)N1CCC[C@@H]1C(=O)N[C@@H](CC(C)C)C(N)=O	min	13.25
